Molecular target: GST-Als5 (Candida albicans)
Construct: made in house; host or cells: E. coli BL21(DE3)
Assay: biochemical
Format: binding
Details: Kd, 52 °C (secondary structure of protein mildly perturbed); 0.02 mg/ml protein, excitation 295 nm, one-site saturation model
Ends that are not written are not given here.
experimentalEndpoint: Kd (nM)

substance="KLRIPSV [KLRIPSV]" testedsystem="GST-Als5 (Candida albicans)" value=7

====

Below, each entry is listed with its recorded Kd.
Target: GST-Als5 (Candida albicans, UniProt Q5A8T7)
Construct: made in house; host or cells: E. coli BL21(DE3)
Sequence (Q5A8T7 1-1327): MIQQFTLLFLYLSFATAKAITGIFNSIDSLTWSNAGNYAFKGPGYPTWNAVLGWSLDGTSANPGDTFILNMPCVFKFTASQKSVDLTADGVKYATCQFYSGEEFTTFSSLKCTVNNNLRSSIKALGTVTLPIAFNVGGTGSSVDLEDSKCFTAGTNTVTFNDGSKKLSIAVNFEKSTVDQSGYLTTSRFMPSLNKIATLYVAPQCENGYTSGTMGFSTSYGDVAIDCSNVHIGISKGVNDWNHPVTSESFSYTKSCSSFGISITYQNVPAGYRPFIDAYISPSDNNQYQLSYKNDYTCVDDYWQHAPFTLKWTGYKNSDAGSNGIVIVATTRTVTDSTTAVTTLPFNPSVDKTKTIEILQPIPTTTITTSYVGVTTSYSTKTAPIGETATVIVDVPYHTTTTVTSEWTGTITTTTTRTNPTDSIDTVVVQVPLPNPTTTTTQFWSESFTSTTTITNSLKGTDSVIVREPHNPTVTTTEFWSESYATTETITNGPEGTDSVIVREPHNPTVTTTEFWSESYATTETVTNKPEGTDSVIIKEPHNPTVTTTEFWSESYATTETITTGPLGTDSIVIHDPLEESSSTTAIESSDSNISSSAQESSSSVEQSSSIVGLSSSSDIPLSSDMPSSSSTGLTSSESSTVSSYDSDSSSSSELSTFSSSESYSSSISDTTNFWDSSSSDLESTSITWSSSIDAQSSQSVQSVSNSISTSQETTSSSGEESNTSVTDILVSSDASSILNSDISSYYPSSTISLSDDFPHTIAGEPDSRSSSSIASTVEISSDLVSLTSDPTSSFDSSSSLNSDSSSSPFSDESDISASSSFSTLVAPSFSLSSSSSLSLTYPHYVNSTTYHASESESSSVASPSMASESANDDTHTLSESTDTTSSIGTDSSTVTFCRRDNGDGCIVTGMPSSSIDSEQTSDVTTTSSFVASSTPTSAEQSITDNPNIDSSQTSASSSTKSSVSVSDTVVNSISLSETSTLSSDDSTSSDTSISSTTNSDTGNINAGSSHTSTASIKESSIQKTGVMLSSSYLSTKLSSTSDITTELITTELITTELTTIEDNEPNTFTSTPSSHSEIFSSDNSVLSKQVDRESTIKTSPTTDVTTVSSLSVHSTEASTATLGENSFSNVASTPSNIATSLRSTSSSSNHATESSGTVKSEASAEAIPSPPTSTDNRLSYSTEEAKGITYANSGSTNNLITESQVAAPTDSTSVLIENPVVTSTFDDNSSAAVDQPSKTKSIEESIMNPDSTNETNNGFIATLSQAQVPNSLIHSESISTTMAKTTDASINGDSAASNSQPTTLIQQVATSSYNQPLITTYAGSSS
Assay: biochemical
Type: binding
Conditions: Kd, 37 °C; 0.02 mg/ml protein, excitation 295 nm, one-site saturation model; average of three independent measurements in duplicates
Ends that are not written are not given here.
experimentalEndpoint: Kd

substance="KLRIPSV [KLRIPSV]" experimentalendpoint=Kd value="0.034 µM"
substance="EHAHTPR [EHAHTPR]" experimentalendpoint=Kd value="0.16 µM"
substance="AYKSLMT [AYKSLMT]" experimentalendpoint=Kd value="0.013 µM"
